Where a name gives a salt, the structure may show the parent alone.
parameter: melting point

Need melting point of CCCN(CC1CC1)C(=O)c1c2cccc(-c3c(C)cc(C)cc3C)c2nn1C , thanks.
112.5 to 113.8 °C

Need melting point of CCCN(CCC)c1c2cccc(-c3c(C)cc(C)cc3C)c2nn1C (as salt: hydrochloride) , thanks.
154 to 158 °C

Need melting point of Cn1nc2c(-c3ccc(Cl)cc3Cl)cccc2c1C(=O)N1CCOCC1 , thanks.
197 to 200.8 °C

Need melting point of COCCN(CCOC)c1c2cccc(-c3c(C)cc(C)cc3C)c2nn1C (as salt: hydrochloride) , thanks.
140 to 142 °C

Need melting point of CCCN(CCOC)c1c2cccc(-c3c(C)cc(C)cc3C)c2nn1C (as salt: hydrochloride) , thanks.
86 to 121 °C

Need melting point of CCCN(Cc1c2cccc(-c3c(C)cc(C)cc3C)c2nn1C)CC1CC1.Cl , thanks.
125.8 to 133.5 °C

Need melting point of Cn1nc2c(-c3ccc(Cl)cc3Cl)cccc2c1CN1CCOCC1 , thanks.
152.3 to 154.8 °C

Need melting point of CCC=C(CCC)c1c2cccc(-c3ccc(Cl)cc3Cl)c2nn1C (as salt: hydrochloride) , thanks.
147 to 152 °C

Need melting point of CC/C=C(\CCC)c1c2cccc(-c3ccc(OC)nc3C)c2nn1C.Cl , thanks.
84.7 to 89.4 °C

---

# system_tested: hCRF1 (Homo sapiens, UniProt P34998)
# Construct: endogenous in cells; host or cells: Human Y-79 retinoblastoma cells
# Sequence (P34998 24-415): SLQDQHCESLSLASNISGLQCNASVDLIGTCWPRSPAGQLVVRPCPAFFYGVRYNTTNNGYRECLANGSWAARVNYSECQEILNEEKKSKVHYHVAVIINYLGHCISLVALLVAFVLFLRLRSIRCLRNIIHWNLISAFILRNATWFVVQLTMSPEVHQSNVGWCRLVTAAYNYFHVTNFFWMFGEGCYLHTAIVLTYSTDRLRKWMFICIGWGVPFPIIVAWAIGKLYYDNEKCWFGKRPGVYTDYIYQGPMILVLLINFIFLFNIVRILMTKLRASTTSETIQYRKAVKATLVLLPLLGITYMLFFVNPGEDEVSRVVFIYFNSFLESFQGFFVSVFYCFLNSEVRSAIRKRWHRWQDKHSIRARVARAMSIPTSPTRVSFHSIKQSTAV
# protocol_notes: Intracellular cAMP stimulation assay (CRF1 functional assay)
# Type: cell-based
# settings: inhibition of hCRF (30 nM)-stimulated cAMP accumulation in human Y-79 retinoblastoma cells, read-out: hCRF1 pIC50 (converted)
Where a name gives a salt, the structure may show the parent alone.
For each entry below, report its IC50 value.
Report the value in nM with no unit label.

Look up IC50 with hCRF1 (Homo sapiens, UniProt P34998) for this compound: CCC=C(CCC)c1c2cccc(-c3c(C)cc(C)cc3C)c2nn1C.Cl [Ib, hydrochloride]
50.1

Look up IC50 with hCRF1 (Homo sapiens, UniProt P34998) for this compound: CCCN(Cc1cccs1)c1c2cccc(-c3c(C)cc(C)cc3C)c2nn1C [Io]
79.4

Look up IC50 with hCRF1 (Homo sapiens, UniProt P34998) for this compound: CCCN(CCC)c1c2cccc(-c3c(C)cc(C)cc3C)c2nn1C [Ic]
79.4

Look up IC50 with hCRF1 (Homo sapiens, UniProt P34998) for this compound: CCC=C(CCC)c1c2cccc(-c3ccc(Cl)cc3Cl)c2nn1C [Ia, hydrochloride]
63.1

Look up IC50 with hCRF1 (Homo sapiens, UniProt P34998) for this compound: CCCN(CC1CC1)c1c2cccc(-c3c(C)cc(C)cc3C)c2nn1C [Ip, trifluoroacetic acid salt]
50.1
